Cited source: the DeepSol protein solubility set

experiment: soluble on expression in E. coli; label from the status in PepcDB or PDB records
ENDPOINT_NAME: soluble on expression in E. coli

MSLEKVGTIGVAIPSATHGFMGGLNFHAQDTIKRLQQVYPQLDFVLATAGNAGKMVNDIEDMVATRNISALVVLPFESEPLTSPVQAVKEAGIWVTVVDRGLSVEGIEDLYVAGDNPGFGRVAGEYFAQHLESGKKIVVLRGIPTTLDNERVEAFTAAIEGSGIEVLDMQHGNWNRDDAFNVMQDFLSKYPQIDAVWAADDDMAIGAMEAIAQAGRTEEMWVMGGAGMKEIIRRIADGDPQLPANVTYPPAQISTAIELTALKLVSSTPVSGRFIIGSQLVTPENAEQFYFPDSEGHHHHHH soluble
VAFTEKQDALVSSSFEAFKANIPQYSVVFYTSILEKAPAAKDLFSFLANGVDPTNPKLTGHAEKLFALVRDSAGQLKASGTVVADAALGSVHAQKAVTDPQFVVVKEALLKTIKAAVGDKWSDELSRAWEVAYDELAAAIKKA soluble

---

assay: soluble on expression in E. coli; label from the status in PepcDB or PDB records
ENDPOINT_NAME: soluble on expression in E. coli

MSLSDRDSTLSRLKSAGENGDVEAQYALGLMYLYGEILDVDYQQAKIWYEKAADQNDPRAQAKLGVMYANGLGVNQDYQQSKLWYEKAAAQNDVDAQFLLGEMYDDGLGVSQDYQHAKMWYEKAAAQNDERAQVNLAVLYAKGNGVEQDYRQAKSWYEKAAAQNSPDAQFALGILYANANGVEQDYQQAKDWYEKAAEQNFANAQFNLGMLYYKGEGVKQNFRQAREWFEKAASQNQPNAQYNLGQIYYYGQGVTQSYRQAKDWFEKAAEKGHVDAQYNLGVIYENGEGVSQNYQQAKAWYEKAASQNDAQAQFELGVMNELGQGESIDLKQARHYYERSCNNGLKKGCERLKELLYKEGHHHHHH soluble
MSSQIPFTVDHVGSFLRPETIKKARKKVQAGALSQAELRLIEDEEIKALVAKQKAGGLRGITDGEFRRGFWHIDFLEGLNGVTGYIPETGYNQTFHGKAAPAYNIRVVDKISFPTQHPFLEDFSFLKEVVEVGDGTVAKATIPSPTMILRQEILSNDGTSRIQTIYPEIGAFYKDLAQTYKDAIAAFYERGCRYLQFDDTNWAFLADQTKQEELRAKGIQPEEIAQVCTTIINEALAGKPEDLTVTTHICRGNHASSWLFSGGYEPIAKELFATNYDGFFLEYDSDRAGDFSPLRHWQNNGSKVVLGLVTSKFPELEETEQVKARIEEAQQFVPLENLSISPQCGFASTEEGNRLTEKEQWRKVQLLQEIAREVWLEHHHHHH soluble
MQNNDFRTGSGSLKGSSTGVLKQFLFENVFICRIGVIKSFDFETQKGVVTIKEYEGLEISTCSISNFNFDLTAEDEVILLQSNFNIFQESDNNHFDKNYFYILSVLNPKKIGIRLDQFELSVQELGAQSENIKFKAKKLIIDVDNIEIKGNLKINGTKFENHMHSSGTLTYVNSSGVPTTTTGKTGPIA soluble
NIGSGTDEKTATARAKVVDWCNELVIASPSTKCELLAKVQETVLGSCAELAEEFLESVLSLAHDSNMEVRKQVVAFVEQVCKVKVELLPHVINVVSMLLRDNSAQVIKRVIQACGSIYKNGLQYLCSLMEPGDSAEQAWNILSLIKAQILDMIDNENDGIRTNAIKFLEGVVVLQSFADEDSLKRDGDFSLADVPDHCTLFRREKLQEEGNNILDILLQFHGTTHISSVNLIACTSSLCTIAKMRPIFMGAVVEAFK soluble
